Target: Human cathepsin S (Homo sapiens)
Sequence (P25774 115-331): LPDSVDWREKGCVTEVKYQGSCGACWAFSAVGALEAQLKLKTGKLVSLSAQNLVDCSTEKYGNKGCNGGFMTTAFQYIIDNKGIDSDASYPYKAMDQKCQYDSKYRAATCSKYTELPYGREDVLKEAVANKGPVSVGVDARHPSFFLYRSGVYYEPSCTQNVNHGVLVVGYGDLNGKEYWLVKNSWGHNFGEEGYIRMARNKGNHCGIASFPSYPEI
Assay: Cathepsin S Assay (Z-Val-Val-Arg-AMC hydrolysis)
Format: biochemical
Details: text statement for drawn compounds
pKi: −log10 of the molar value.

>  <Input smiles>
CC(C)CS(=O)(=O)C[C@H](N[C@@H](c1ccc(F)cc1)C(F)(F)F)C(=O)NC1(C#N)CC1

>  <System under test>
Human cathepsin S (Homo sapiens)

>  <pKi>
> 8.00

$$$$

====

Target: Human cathepsin S (Homo sapiens)

>  <Input smiles>
N#CC1(NC(=O)[C@H](CC(F)(F)CC2CC2)N[C@@H](c2ccc(C(F)(F)F)cc2)C(F)(F)F)CC1

>  <System under test>
Human cathepsin S (Homo sapiens)

>  <IC50>
< 10 nM

$$$$

Reference source: patent US20120329837A1
